Recorded values, source ChEMBL document CHEMBL1828531.

Exercise: for every item that follows, state its recorded Activity.
Target: Polyunsaturated fatty acid lipoxygenase ALOX12 (Homo sapiens) (UniProt P18054)
Sequence (whole entry): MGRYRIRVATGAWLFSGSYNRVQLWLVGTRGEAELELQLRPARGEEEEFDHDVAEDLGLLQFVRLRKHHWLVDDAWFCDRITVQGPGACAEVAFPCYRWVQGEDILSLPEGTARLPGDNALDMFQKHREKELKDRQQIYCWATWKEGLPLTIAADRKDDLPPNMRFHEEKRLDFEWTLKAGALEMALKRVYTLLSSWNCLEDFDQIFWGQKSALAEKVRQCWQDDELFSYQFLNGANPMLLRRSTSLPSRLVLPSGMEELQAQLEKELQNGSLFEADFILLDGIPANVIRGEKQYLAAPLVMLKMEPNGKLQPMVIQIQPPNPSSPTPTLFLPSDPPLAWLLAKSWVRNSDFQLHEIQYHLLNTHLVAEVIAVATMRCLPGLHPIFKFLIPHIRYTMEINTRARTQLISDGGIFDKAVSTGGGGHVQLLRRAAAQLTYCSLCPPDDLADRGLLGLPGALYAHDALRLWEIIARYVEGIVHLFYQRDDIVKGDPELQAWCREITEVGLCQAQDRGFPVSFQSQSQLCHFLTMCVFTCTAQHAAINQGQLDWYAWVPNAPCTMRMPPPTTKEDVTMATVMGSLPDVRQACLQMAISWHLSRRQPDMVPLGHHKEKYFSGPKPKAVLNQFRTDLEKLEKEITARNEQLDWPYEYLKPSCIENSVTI
Test: Inhibition of 12-Lipoxygenase-mediated 12-HETE in human neutrophil assessed as residual activity at 30 uM after 15 mins by HPLC analysis
Numbers only, in %.

(Q) What Activity appears in the records for this compound with Polyunsaturated fatty acid lipoxygenase ALOX12 (Homo sapiens) (UniProt P18054)? "Cc1ccc(-c2cc(CCC(=O)Oc3ccc(C(C)C)cc3)nn2-c2ccc(Cl)nn2)cc1"
(A) 77.1

(Q) What Activity appears in the records for this compound with Polyunsaturated fatty acid lipoxygenase ALOX12 (Homo sapiens) (UniProt P18054)? "Cc1ccc(-c2cc(CCC(=O)Oc3ccc(C(C)C)cc3)nn2-c2ccc3ccccc3n2)cc1"
(A) 67.8

(Q) What Activity appears in the records for this compound with Polyunsaturated fatty acid lipoxygenase ALOX12 (Homo sapiens) (UniProt P18054)? "CCOC(=O)C1CCN(C(=O)CCc2cc(-c3ccc(C)cc3)n(-c3ccc4ccccc4n3)n2)CC1"
(A) 91.9

(Q) What Activity appears in the records for this compound with Polyunsaturated fatty acid lipoxygenase ALOX12 (Homo sapiens) (UniProt P18054)? "Cc1ccc(-c2cc(CCC(=O)Oc3ccc(C(C)C)cc3)nn2-c2ccccc2)cc1"
(A) 67.2

(Q) What Activity appears in the records for this compound with Polyunsaturated fatty acid lipoxygenase ALOX12 (Homo sapiens) (UniProt P18054)? "Cc1ccc(-c2cc(CCC(=O)N3CCN(Cc4ccc(C(C)(C)C)cc4)CC3)nn2-c2ccccc2)cc1"
(A) 118

Dear colleague, could you please provide Activity for the compounds listed below?
1. CCOC(=O)C1CCN(C(=O)CCc2cc(-c3ccc(C(F)(F)F)cc3)n(-c3ccc(Cl)nn3)n2)CC1
2. CCOC(=O)C1CCN(C(=O)CCc2cc(-c3ccc(C)cc3)n(-c3ccccc3)n2)CC1
3. CC(C)(C)c1ccc(CN2CCN(C(=O)CCc3cc(-c4ccc(F)cc4)n(-c4ccc(Cl)nn4)n3)CC2)cc1
4. Cc1ccc(-c2cc(CCC(=O)N3CCN(Cc4ccc(C(C)(C)C)cc4)CC3)nn2-c2ccc3ccccc3n2)cc1

(A)
90.4
98
103
111
